Cited source: patent US20260092074A1

# measured.on: human CYP11B1 (Homo sapiens, UniProt P15538)
# Sequence (P15538 25-503): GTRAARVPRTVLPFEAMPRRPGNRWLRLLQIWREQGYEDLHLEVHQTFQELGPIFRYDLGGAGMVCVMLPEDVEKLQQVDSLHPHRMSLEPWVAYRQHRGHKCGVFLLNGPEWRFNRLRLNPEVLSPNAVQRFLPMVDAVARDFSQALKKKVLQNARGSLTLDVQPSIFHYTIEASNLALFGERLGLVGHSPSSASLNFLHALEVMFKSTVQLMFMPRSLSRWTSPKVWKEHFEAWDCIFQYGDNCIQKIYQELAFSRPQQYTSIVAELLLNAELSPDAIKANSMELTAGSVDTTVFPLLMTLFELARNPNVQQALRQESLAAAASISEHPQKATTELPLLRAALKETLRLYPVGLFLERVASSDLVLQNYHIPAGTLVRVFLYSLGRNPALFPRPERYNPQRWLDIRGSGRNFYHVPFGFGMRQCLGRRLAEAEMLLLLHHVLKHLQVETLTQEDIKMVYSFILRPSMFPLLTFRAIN
# method.summary: Inhibition of hCYP11B1 in transfected V79 cells
# condition.info: hamster V79 cells expressing human CYP11B1; substrate 11-deoxycortisol 200 nM
quantity.measured: IC50 (nM)

- molecular.string: "COc1cccc(CN2CC(C(=O)N3CCOc4c(-c5ccc(C#N)cc5)cncc43)C2)c1"
  readout.value: 69
- molecular.string: "N#Cc1ccc(-c2cncc3c2OCCN3S(=O)(=O)C2CN(c3cccc(F)c3)C2)cc1"
  readout.value: 126
- molecular.string: "COc1cccc(C(=O)N2CC(S(=O)(=O)N3CCOc4c(-c5ccc(C#N)cc5)cncc43)C2)c1"
  readout.value: 169
- molecular.string: "O=C(c1ccccc1F)N1CCc2c(-c3ccc4nccn4c3)cncc21"
  readout.value: 876

I = N#Cc1ccc(-c2cncc3c2SCCN3S(=O)(=O)c2ccc(C(F)(F)F)cc2)cc1
II = N#Cc1cccc(-c2cncc3c2CCN3C(=O)c2ccccc2F)c1
III = Cc1cccc(S(=O)(=O)N2CC(C(=O)N3CCOc4c(-c5ccc(C#N)cc5)cncc43)C2)c1
Task: Would you mind ranking these molecules by ascending IC50? Answer with the labels in sequence, matching the requested order.
Result: I, III, II
